test system: DU-145 prostate; assay: NCI tumour cell line growth inhibition, 48 h; in the data active = GI50 below about 0.43 µM; inactive = the rest
Reply using exactly one outcome from active, inactive

COc1cc(O)c([C@@H]2C[C@H](CCc3ccc(O)cc3)O[C@H](c3ccc(O)cc3)C2)c(O)c1C(=O)/C=C/c1ccc(O)cc1; inactive

Prompt line: What outcome does the record of this test show for COc1ccc2c(c1)[nH]c(=O)c1c3cc(C)c(C)cc3cn21 ?
Response line: active

---

tested on: MDA-MB-231 breast; experiment: NCI tumour cell line growth inhibition, 48 h
Readings of GI50 for the listed molecules

Example results:
N=C1C(c2nc(-c3ccc(Br)cc3)cs2)=C(O)CN1Cc1cccnc1; 15900 nM
ClCc1cccc(Cn2cnc3c(Cl)ncnc32)c1; 1990 nM
C=C1CC2(OC1=O)C(=O)N(CCCCCCCN1C(=O)C3(CC(=C)C(=O)O3)c3ccccc31)c1ccccc12 (centres undefined); 1180 nM

Prompt line: Determine from records and report GI50 for Cc1c2c(nn1-c1ccc(S(=O)(=O)NC(=S)Nc3ccccc3)cc1)-c1ccccc1CC2
Response line: > 50000 nM

Prompt line: Determine from records and report GI50 for CC(C)C[C@H](NC(=O)[C@H](Cc1cccc2ccccc12)NC(=O)N1CCOCC1)B(O)O
Response line: 1.88 nM

Reference source: PubChem BioAssay (NCI)
